# Test system: PPARg:RXRa 270nM:90nM, anti-RXR (NR concentration 270 nM, RXRa partner concentration 90 nM)
# procedure details: PBM binding z-score (relative to random genomic background probes); higher = stronger binding; sequences stand for … in GC…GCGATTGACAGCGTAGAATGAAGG
Answer FALSE if PBM binding z-score is under 2, and TRUE if it is 2 or more.

Solved entries:
sequence_content=CGTCCAAGGTCATAGGTCAGTGAAGAGATGACGG qualitative_label=TRUE
sequence_content=GCATATAGGTAATACAAGGTGTAAGTCCGATTGT qualitative_label=FALSE
sequence_content=AGTCAAAGTTCAGGACGGGGTAACGTAAAGCACG qualitative_label=TRUE
sequence_content=TCGAGTAGGTTAGTCGGGTCATTCAGCCAACATA qualitative_label=TRUE
sequence_content=TCTATTAGTTGAAGGGGAACCGACGAGTCCGTTT qualitative_label=TRUE

PBM binding z-score >= 2 for CCTAGCAGGCCAGCGTCACTCAAGCATTTCGCTT ?
FALSE

// next record CCTGCTGGGCCACGAAAGGTCATTGATTCAGTGA
TRUE

// next record CAAACTGGGTCAAAGGTCAAAGTCGAGCCAACCA
TRUE

// next record TCTTGTAGATCAATAAAGGTTAAGAAAGTGCGCT
TRUE

// next record TCGAGTAGGTTACCAATGGGGAATTCAGCTTTCT
FALSE

// next record GGAACGAGGGTATTCGAGTTGATAGCATGGCGAT
FALSE

Where these numbers come from: the supplement of paper PMC6555819
